Reference source: paper PMC12040169

PROTOCOL DETAILS: in vitro
PARTICULARS: human, hela cells, % viability
viability at 28.5 h, 10 µM less than 90% is Met; viability at 28.5 h, 10 µM greater than or equal to 90% is Not met.

Threshold test, viability at 28.5 h, 10 µM < 90%: `Cc1cc(NCc2ccccc2)nc2ccccc12` Not met

Here's an entry: `Cc1nc(SCC(=O)N2CCC(C)CC2)c2c3c(sc2n1)CCC3` . Is its viability at 28.5 h, 10 µM below 90%? Met

Quick check: does `CCOc1cccc(CNc2nn[nH]n2)c1OCc1ccc(C)cc1` have viability at 28.5 h, 10 µM under 90%? Not met

# check: viability at 28.5 h, 10 µM < 90% for `O=C(Nc1sc2c(c1C(=O)N1CCOCC1)CCCCC2)c1cccs1` Not met

Is 90% strictly greater than the compound's reported viability at 28.5 h, 10 µM? compound: COc1ccc(CN2CCNC(=O)C2CC(=O)O)c(OC)c1 (stereo not drawn) Not met

I wonder whether `Cc1nc(CCCn2cnc3cnccc3c2=O)sc1C` has viability at 28.5 h, 10 µM below 90%. Can you tell? Not met

Please determine if `c1coc(-c2nc3cnccn3c2NC2CCCCC2)c1` is below 90% in terms of viability at 28.5 h, 10 µM. Not met

Does the reported viability at 28.5 h, 10 µM of the following compound sit strictly below 90%? `COc1ccccc1Oc1ccc(C(F)(F)F)cc1[N+](=O)[O-]` Not met

Could you please tell me whether viability at 28.5 h, 10 µM recorded for `Cc1ccc(-c2cc3ccccn3c2C(=O)CSc2nncn2C)cc1` is less than 90%? Met

Does the reported viability at 28.5 h, 10 µM of the following compound sit strictly below 90%? `Cc1cc(NC(=O)CSc2nc3c(c(C(F)(F)F)n2)CCc2ccccc2-3)n(-c2ccccc2)n1` Not met

API: query returns whether the compound falls strictly under 90% in viability at 28.5 h, 10 µM. Query: `O=C(NCc1nnc(-c2cccs2)o1)c1ccccc1-c1ccccc1` Not met

Find out if reported viability at 28.5 h, 10 µM for O=C(NC(C(=O)N/N=C/c1ccccc1O)c1n[nH]c(=O)c2ccccc12)c1ccccc1 (stereo not drawn) is less than 90% Not met

Is 90% strictly greater than the compound's reported viability at 28.5 h, 10 µM? compound: COc1ccc2c(c1)C1(CC(=O)N(Cc3ccccc3)C1=O)C(=O)N2CCCN1C(=O)c2ccccc2C1=O (stereo not drawn) Not met

Given the entry `Cc1ccc2nsnc2c1NC(=O)CN1CCC(C)CC1` , would its reported viability at 28.5 h, 10 µM be below 90%? Met

I'd appreciate it if you could check whether `COc1ccc(C2(NC(=O)Cn3ccnc3)CCCCC2)cc1` has viability at 28.5 h, 10 µM smaller than 90%. Met

Threshold test, viability at 28.5 h, 10 µM < 90%: CC(C)(N)C(=O)N1CC(C(=O)N2CC3(CCN(S(C)(=O)=O)CC3)c3ccccc32)C(c2cc3ccccc3o2)C1 (stereo not drawn) [CBK136734T] Not met

Does the reported viability at 28.5 h, 10 µM of the following compound sit strictly below 90%? Fc1ccc2nc(NCC3CCCO3)sc2c1 (stereo not drawn) Not met

API: query returns whether the compound falls strictly under 90% in viability at 28.5 h, 10 µM. Query: `O=C(CSc1nc[nH]n1)Nc1nsc(-c2ccc(Cl)cc2)n1` Not met

In plain terms, does CC(=O)N[C@H]1CC[C@]2(C)CCC([C@H](C)C(=O)NC3CCCC3)[C@H](O)[C@H]2[C@@H]1C (stereo partly drawn) come in under 90% for viability at 28.5 h, 10 µM? Met

Check if viability at 28.5 h, 10 µM falls below 90% for `Cn1nc(C(=O)NCCSc2n[nH]c(=O)[nH]c2=O)c2ccccc2c1=O` . Met

Check if viability at 28.5 h, 10 µM falls below 90% for `O=C(O)CNS(=O)(=O)c1ccc(Cl)c(Cl)c1` . Met

Below 90% on viability at 28.5 h, 10 µM? Entry CC1CCCC(N2CCN(Cc3ccccn3)CC2)C1 (stereo not drawn) Not met

hey, is viability at 28.5 h, 10 µM for `CCn1c(SCC(=O)N2CCCC2)nc2cc(C)[nH]c2c1=O` lower than 90% or not? Not met

Dear reviewer, please state whether `CC(=O)OCC(=O)N1CCC(N(C)Cc2ccc(-c3ccc(S(C)(=O)=O)cc3)nc2)CC1` has viability at 28.5 h, 10 µM strictly beneath 90%. Not met

Record `O=c1ccc2ccc(-c3cccc(C(F)(F)F)c3)nc2[nH]1` : is its viability at 28.5 h, 10 µM strictly below 90%? Met

Field: below-cutoff. Rule: recorded viability at 28.5 h, 10 µM strictly less than 90%. Subject: `CCOc1ccc(OCC)c(S(=O)(=O)n2nc(C)cc2C)c1` Not met

Please indicate whether the reported viability at 28.5 h, 10 µM of `COc1ccc(Nc2nc(-c3cc(C(C)C)ccc3OC)cnc2N)c(C)c1` is strictly below 90%. Met

# strict comparison: is reported viability at 28.5 h, 10 µM < 90%? input = `c1nn(C2CCCCC2)cc1-c1cncn1CCCN1CCCCC1` Not met

A record lists CC(C)Cc1ccc(C(CC(=O)O)C(=O)O)cc1 (stereo not drawn) . Is its viability at 28.5 h, 10 µM below 90%? Not met

Could you please tell me whether viability at 28.5 h, 10 µM recorded for `COc1ccc(S(=O)(=O)N2CCN(c3ccccc3F)CC2)cc1` is less than 90%? Met
